Entries and their MRT inf values follow.
Measurement description: Pharmacokinetics in rats
Type: in vivo
Condition parameters: rat, in vivo, IV 2 mg/kg
Value type: MRT inf (h)

Molecule	Experimental result
CC1(C)CCC(CN2CCN(c3ccc(C(=O)NS(=O)(=O)c4ccc(NCC5CCOCC5)c([N+](=O)[O-])c4)c(Oc4cnc5[nH]ccc5c4)c3)CC2)=C(c2ccc(Cl)cc2)C1 [ABT-199, Venetoclax, reference compound]	1.23
O=C(NS(=O)(=O)c1ccc(NC[C@H]2COCCO2)c([N+](=O)[O-])c1)c1ccc(N2CCN(CC3=C(c4ccc(Cl)cc4)CC4(CCC4)CC3)CC2)cc1Oc1cnc2[nH]ccc2c1 [Cpd. No. 6]	2.09
O=C(NS(=O)(=O)c1ccc(NCC2CCOCC2)c([N+](=O)[O-])c1)c1ccc(N2CCN(CC3=C(c4ccc(Cl)cc4)CC4(CCC4)CC3)CC2)cc1Oc1cnc2[nH]ccc2c1 [Cpd. No. 3]	2.37
